biological target: HIV-1 JR-CSF Env on pseudovirus (HIV-1 JR-CSF) (UniProt P20871); test: cell-based or functional assay
measurement.kind: IC50 (ug/ml), pseudovirus neutralization, TZM-bl assay (µg/mL)

binder | unit.annotation | reported.value
1489_I13 (PG16) (TCN-120) (antibody, V domains shown) VH: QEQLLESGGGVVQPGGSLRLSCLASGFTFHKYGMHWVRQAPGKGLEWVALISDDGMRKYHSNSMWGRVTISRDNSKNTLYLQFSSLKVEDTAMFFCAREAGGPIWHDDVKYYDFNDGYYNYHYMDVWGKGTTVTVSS VL: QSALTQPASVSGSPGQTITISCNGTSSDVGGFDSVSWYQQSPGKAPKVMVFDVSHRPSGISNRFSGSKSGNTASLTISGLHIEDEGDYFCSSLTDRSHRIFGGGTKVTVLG | µg/mL | 0.002
